From: patent US12378248B2

Target: TSPO (translocator protein) (UniProt P30536)
Assay: Off-target interaction determined by the PDSP
Format: binding, human
Conditions: read-out: Off-target, receptor (h, unless noted) (Ki, μM): TSPO
VALUE TYPE: Ki (µM)

>>> df
                                   compound                       experimental_target  observed_measurement
0  O[C@@H]1[C@H](O)[C@@H](CCl)O[C@H]1n1cnc2c(NC(C3CCC3)C3CCC3)ncnc21  TSPO (translocator protein) (UniProt P30536)                  3.98
1  OC[C@@]12C[C@@H]1[C@@H](n1cnc3c(NC(C4CCC4)C4CCC4)nc(Cl)nc31)[C@H](O)[C@@H]2O  TSPO (translocator protein) (UniProt P30536)                  2.93
2  O[C@@H]1[C@H](O)[C@@H]2C[C@@H]2[C@H]1n1cnc2c(NC(C3CCC3)C3CCC3)nc(Cl)nc21  TSPO (translocator protein) (UniProt P30536)                  2.38

A = O[C@H]1[C@H](n2cnc3c(NC(C4CCC4)C4CCC4)nc(Cl)nc32)[C@H]2C[C@@]2(CCl)[C@H]1O
B = O[C@H]1[C@H](n2cnc3c(NC(C4CCC4)C4CCC4)ncnc32)[C@H]2C[C@@]2(CCl)[C@H]1O
Param pair: A , B . Output: the one whose Ki is numerically greater. State the label of the item chosen. A
(A: 2.89 µM, B: 2.02 µM)

----------
Molecular target: hA1AR (Homo sapiens)
Construct: expressed in transfected cells; host or cells: CHO
Sequence (P30542 1-326): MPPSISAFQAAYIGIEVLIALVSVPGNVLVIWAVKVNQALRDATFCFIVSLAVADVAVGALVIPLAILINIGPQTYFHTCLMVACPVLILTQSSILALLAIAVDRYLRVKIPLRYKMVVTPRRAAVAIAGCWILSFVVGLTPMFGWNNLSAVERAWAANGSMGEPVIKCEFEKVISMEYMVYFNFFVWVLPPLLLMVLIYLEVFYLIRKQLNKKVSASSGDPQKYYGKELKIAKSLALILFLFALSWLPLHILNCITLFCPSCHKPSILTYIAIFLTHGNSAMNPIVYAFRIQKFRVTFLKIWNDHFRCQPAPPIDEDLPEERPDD
Experiment: Radioligand binding in membranes of CHO cells expressing hA1AR, [3H]N6-R-phenylisopropyladenosine
Conditions: read-out: A1AR % inhibition or Ki
VALUE TYPE: inhibition at 10 µM (%)

In [3]: df
Out[3]:
                                   compound   experimental_target           value_type  observed_measurement
0  CCOC(=O)[C@@]12C[C@@H]1[C@@H](n1cnc3c(NC(C4CC4)C4CC4)nc(Cl)nc31)[C@@H]1OC(C)(C)O[C@@H]12  hA1AR (Homo sapiens)  inhibition at 10 µM                    49

P = O[C@H]1[C@H](n2cnc3c(NC(C4CCC4)C4CCC4)nc(Cl)nc32)[C@H]2C[C@@]2(CSc2ccccc2F)[C@H]1O
Q = COC(=O)c1ncn([C@H]2[C@H](O)[C@H](O)[C@]3(CO)C[C@H]23)n1
R = Nc1ncnc2c1ncn2[C@@H]1O[C@H](C(=O)O)[C@@H](O)[C@H]1O
Could you please order the items by inhibition at 10 µM, going from the lowest number to the highest? Lab note: final answer is the ordered label list. Q, R, P

----------
Biological target: sigma receptor σ1 (Homo sapiens)
Sequence (Q99720 whole entry): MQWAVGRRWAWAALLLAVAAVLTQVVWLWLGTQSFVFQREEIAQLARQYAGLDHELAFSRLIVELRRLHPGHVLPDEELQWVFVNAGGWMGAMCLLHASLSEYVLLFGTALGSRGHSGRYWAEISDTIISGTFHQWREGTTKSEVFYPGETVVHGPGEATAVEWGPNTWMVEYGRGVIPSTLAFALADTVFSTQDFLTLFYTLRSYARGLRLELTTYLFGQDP
Experiment: Off-target interaction determined by the PDSP
Type: binding
Details: read-out: Off-target, receptor (h, unless noted) (Ki, μM): σ1
VALUE TYPE: Ki (µM)

>>> df
                                   compound  value_type  observed_measurement
0  Nc1nc(Cl)nc2c1ncn2[C@H]1[C@H](O)[C@H](O)[C@]2(CCl)C[C@H]12          Ki                  1.97
1  CCSC[C@H]1O[C@@H](n2cnc3c(NC(C4CCC4)C4CCC4)ncnc32)[C@H](O)[C@@H]1O          Ki                 0.626
2  Nc1ncnc2c1ncn2[C@@H]1O[C@H](C(=O)O)[C@@H](O)[C@H]1O          Ki                  1.48

----------
Molecular target: adrenergic receptor α2A (Homo sapiens)
Sequence (P08913 whole entry): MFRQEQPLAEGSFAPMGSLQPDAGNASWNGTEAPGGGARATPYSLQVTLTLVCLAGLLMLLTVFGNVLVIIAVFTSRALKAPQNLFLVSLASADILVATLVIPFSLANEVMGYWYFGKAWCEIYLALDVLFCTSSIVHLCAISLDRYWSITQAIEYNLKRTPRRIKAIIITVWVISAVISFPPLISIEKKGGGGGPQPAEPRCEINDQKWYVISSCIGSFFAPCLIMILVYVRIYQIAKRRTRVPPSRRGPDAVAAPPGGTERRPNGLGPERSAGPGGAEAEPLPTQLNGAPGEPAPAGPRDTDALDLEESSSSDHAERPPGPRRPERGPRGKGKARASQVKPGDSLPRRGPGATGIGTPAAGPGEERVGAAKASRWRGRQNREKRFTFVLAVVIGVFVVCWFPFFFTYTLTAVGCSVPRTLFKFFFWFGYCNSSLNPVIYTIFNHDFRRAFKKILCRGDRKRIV
Test: Off-target interaction determined by the PDSP
Type: binding
Details: read-out: Off-target, receptor (h, unless noted) (Ki, μM): α2A
VALUE TYPE: Ki (µM)
Your answer is read as µM, so omit the unit and give the number.

Find the measured Ki: item O[C@H]1[C@H](n2cnc3c(NC(C4CCC4)C4CCC4)ncnc32)[C@H]2C[C@@]2(CCl)[C@H]1O , target or system adrenergic receptor α2A (Homo sapiens). 6.8

----------
Target: kappa (KOR) opioid receptor (Homo sapiens, UniProt P41145)
Sequence (P41145 whole entry): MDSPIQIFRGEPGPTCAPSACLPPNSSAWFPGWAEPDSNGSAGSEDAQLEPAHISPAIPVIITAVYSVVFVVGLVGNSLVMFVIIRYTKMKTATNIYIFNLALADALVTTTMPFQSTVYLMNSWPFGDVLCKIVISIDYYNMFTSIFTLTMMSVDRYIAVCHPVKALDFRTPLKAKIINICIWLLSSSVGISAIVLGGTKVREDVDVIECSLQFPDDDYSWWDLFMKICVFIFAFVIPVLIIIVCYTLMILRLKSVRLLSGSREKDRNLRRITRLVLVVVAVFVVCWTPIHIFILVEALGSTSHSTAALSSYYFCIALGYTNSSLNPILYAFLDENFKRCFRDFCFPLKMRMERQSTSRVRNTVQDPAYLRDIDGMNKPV
Assay: Off-target interaction determined by the PDSP
Type: binding
Details: read-out: Off-target, receptor (h, unless noted) (Ki, μM): KOR
VALUE TYPE: Ki (µM)
Your answer is read as µM, so omit the unit and give the number.

Find the measured Ki: item O=C(NCCO)[C@@]12C[C@@H]1[C@@H](n1cnc3c(N[C@H]4C[C@H]5CC[C@@H]4C5)nc(Cl)nc31)[C@H](O)[C@@H]2O [Compound 37] , target or system kappa (KOR) opioid receptor (Homo sapiens, UniProt P41145). 2.63

----------
Molecular target: histamine receptor H2 (Homo sapiens, UniProt P25021)
Sequence (P25021 whole entry): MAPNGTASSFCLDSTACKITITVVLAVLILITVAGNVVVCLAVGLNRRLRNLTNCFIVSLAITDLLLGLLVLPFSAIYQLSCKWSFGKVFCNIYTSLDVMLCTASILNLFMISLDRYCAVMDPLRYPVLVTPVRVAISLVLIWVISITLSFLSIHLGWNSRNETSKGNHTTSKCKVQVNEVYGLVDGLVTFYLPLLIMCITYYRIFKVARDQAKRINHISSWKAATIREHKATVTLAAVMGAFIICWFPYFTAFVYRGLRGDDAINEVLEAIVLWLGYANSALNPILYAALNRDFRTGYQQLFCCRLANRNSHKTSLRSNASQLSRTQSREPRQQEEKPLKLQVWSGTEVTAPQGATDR
Assay: Off-target interaction determined by the PDSP
Type: binding
Conditions: read-out: Off-target, receptor (h, unless noted) (Ki, μM): H2
VALUE TYPE: Ki (µM)
Your answer is read as µM, so omit the unit and give the number.

So what does the record say about Ki for O[C@H]1[C@H](n2cnc3c(NC(C4CCC4)C4CCC4)nc(Cl)nc32)[C@H]2C[C@@]2(CCl)[C@H]1O ? 2.6

----------
Target: hA2AAR (Homo sapiens, UniProt P29274)
Sequence (P29274 whole entry): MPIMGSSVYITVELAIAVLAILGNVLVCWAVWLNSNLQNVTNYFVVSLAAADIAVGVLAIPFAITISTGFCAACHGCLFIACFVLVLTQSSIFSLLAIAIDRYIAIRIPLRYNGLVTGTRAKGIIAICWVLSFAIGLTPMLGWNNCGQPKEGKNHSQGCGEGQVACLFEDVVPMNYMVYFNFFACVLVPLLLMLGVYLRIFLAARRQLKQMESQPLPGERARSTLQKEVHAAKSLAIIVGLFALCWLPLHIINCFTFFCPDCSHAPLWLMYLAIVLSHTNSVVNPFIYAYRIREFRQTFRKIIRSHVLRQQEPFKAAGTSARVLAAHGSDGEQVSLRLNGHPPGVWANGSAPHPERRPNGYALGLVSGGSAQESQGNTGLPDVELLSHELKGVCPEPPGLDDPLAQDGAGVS
Assay: Radioligand binding in membranes of HEK293 cells expressing hA2AAR
Details: (h); values without % sign (Ki); read-out: A2AAR % inhibition
VALUE TYPE: Ki (nM)

>>> df
                                   compound                    experimental_target  value_type  observed_measurement
0  CNC(=O)[C@H]1O[C@@H](n2cnc3c(N)ncnc32)[C@H](O)[C@@H]1O [Compound 15, reference compound]  hA2AAR (Homo sapiens, UniProt P29274)          Ki                   466

A = O=C(NCCO)[C@@]12C[C@@H]1[C@@H](n1cnc3c(N[C@H]4C[C@H]5CC[C@@H]4C5)nc(Cl)nc31)[C@H](O)[C@@H]2O
B = Nc1ncnc2c1ncn2[C@@H]1O[C@H](C(=O)NC2CC2)[C@@H](O)[C@H]1O [Compound 17, reference compound]
Param pair: A , B . Output: the one whose Ki is numerically greater. State the label of the item chosen. A
(A: 5400 nM, B: 50 nM)

----------
Target: hA1AR (Homo sapiens, UniProt P30542)
Sequence (P30542 1-326): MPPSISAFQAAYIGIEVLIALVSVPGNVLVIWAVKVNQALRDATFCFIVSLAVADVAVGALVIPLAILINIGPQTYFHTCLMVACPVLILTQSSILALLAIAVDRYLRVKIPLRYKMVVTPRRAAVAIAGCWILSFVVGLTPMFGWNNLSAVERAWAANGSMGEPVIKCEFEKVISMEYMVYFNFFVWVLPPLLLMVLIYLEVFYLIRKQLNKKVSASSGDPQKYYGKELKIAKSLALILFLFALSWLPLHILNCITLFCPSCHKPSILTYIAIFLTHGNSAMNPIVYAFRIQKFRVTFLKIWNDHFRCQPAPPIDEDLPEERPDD
Assay: Radioligand binding in membranes of CHO cells expressing hA1AR, [3H]N6-R-phenylisopropyladenosine
Conditions: (h); Ki; read-out: A1AR % inhibition or Ki
VALUE TYPE: Ki (nM)

Here are 5 compounds together with their reported answers.
>>> df
                                   compound                   experimental_target  unit_descriptor  observed_measurement
0  Nc1nc(Cl)nc2c1ncn2[C@H]1[C@H](O)[C@H](O)[C@]2(CCl)C[C@H]12 [Compound 22]  hA1AR (Homo sapiens, UniProt P30542)               nM                  7.61
1  CNC(=O)[C@H]1O[C@@H](n2cnc3c(N)ncnc32)[C@H](O)[C@@H]1O [Compound 15, reference compound]  hA1AR (Homo sapiens, UniProt P30542)               nM                  36.7
2  CCOC(=O)[C@@]12C[C@@H]1[C@@H](n1cnc3c(NC(C4CCC4)C4CCC4)nc(Cl)nc31)[C@H](O)[C@@H]2O [Compound 35]  hA1AR (Homo sapiens, UniProt P30542)               nM                  73.8
3  OC[C@H]1O[C@@H](n2cnc3c(NC(C4CCC4)C4CCC4)ncnc32)[C@H](O)[C@@H]1O [Compound 9]  hA1AR (Homo sapiens, UniProt P30542)               nM                  2.14
4  O=C(NC1CC1)[C@@]12C[C@@H]1[C@@H](n1cnc3c(N[C@H]4C[C@H]5CC[C@@H]4C5)nc(Cl)nc31)[C@H](O)[C@@H]2O [Compound 36]  hA1AR (Homo sapiens, UniProt P30542)               nM                  1.22

A = OC[C@@]12C[C@@H]1[C@@H](n1cnc3c(NC(C4CCC4)C4CCC4)nc(Cl)nc31)[C@H](O)[C@@H]2O [Compound 25]
B = O[C@H]1[C@H](n2cnc3c(NC(C4CCC4)C4CCC4)nc(Cl)nc32)[C@H]2C[C@@]2(CCl)[C@H]1O [Compound 27]
C = CNC(=O)[C@@]12C[C@@H]1[C@@H](n1cnc3c(NC4CCCC4)nc(Cl)nc31)[C@H](O)[C@@H]2O [Compound 6e, reference compound]
D = OC[C@H]1O[C@@H](n2cnc3c(NC(C4CC4)C4CC4)ncnc32)[C@H](O)[C@@H]1O [Compound 8]
Could you please order the items by Ki, going from the lowest number to the highest? Lab note: final answer is the ordered label list. D, A, C, B
